Values were extracted from ChEMBL document CHEMBL1139507.

In this section we review reported log10 of CC50 values for a set of compounds.
# Tested on: HepG2
# ASSAY_EXPLANATION: Cytostatic concentration required to inhibit Hep G2 cell proliferation
# Format: functional
# CONDITION_SET: Homo sapiens
MEASUREMENT_NAME: log10 of CC50 (log10 of the value in µM)

# COMPOUND, MEASUREMENT_NAME, REPORTED
measured = [
    ("COC(=O)C(C)(C)NP(=O)(OC[C@@H]1C=C[C@H](n2cnc3c(NC4CC4)nc(N)nc32)C1)Oc1ccccc1 (some centres not stated)", "log10 of CC50", 0.74),
    ("C[C@@H](NP(=O)(O)OC[C@@H]1C=C[C@H](n2cnc3c(NC4CC4)nc(N)nc32)C1)C(=O)O", "log10 of CC50", 1.04),
    ("COC(=O)[C@@H](C)NP(=O)(OC[C@@H]1C=C[C@H](n2cnc3c(NC4CC4)nc(N)nc32)C1)Oc1ccccc1 (stereo in doubt; 3a,b)", "log10 of CC50", 1.23),
    ("COC(=O)CNP(=O)(OC[C@@H]1C=C[C@H](n2cnc3c(NC4CC4)nc(N)nc32)C1)Oc1ccccc1 (some centres not stated)", "log10 of CC50", 1.76),
    ("CC(C)OC(=O)[C@@H](C)NP(=O)(OC[C@@H]1C=C[C@H](n2cnc3c(NC4CC4)nc(N)nc32)C1)Oc1ccccc1 (some centres not stated)", "log10 of CC50", 1.23),
    ("Nc1nc2c(ncn2[C@H]2C=C[C@@H](CO)C2)c(=O)[nH]1 [CARBOVIR]", "log10 of CC50", 2.18),
    ("C[C@@H](NP(=O)(OC[C@@H]1C=C[C@H](n2cnc3c(NC4CC4)nc(N)nc32)C1)Oc1ccccc1)C(=O)OC(C)(C)C (some centres not stated)", "log10 of CC50", 1.04),
]

----------
# Test system: Hepatitis B virus
# ASSAY_EXPLANATION: Effective concentration againstHBV in Hep G2.2.15 cells
# Type: functional, organism-based, HepG2 2.2.15
# CONDITION_SET: Hepatitis B virus, HepG2 2.2.15
MEASUREMENT_NAME: EC50 (µM)

# COMPOUND, U, REPORTED
measured = [
    ("Nc1nc(NC2CC2)c2ncn([C@H]3C=C[C@@H](CO)C3)c2n1 [ABACAVIR]", "µM", 5.6),
    ("COC(=O)[C@@H](C)NP(=O)(OC[C@@H]1C=C[C@H](n2cnc3c(O)nc(N)nc32)C1)Oc1ccccc1 (some centres undefined)", "µM", 0.51),
    ("Nc1nc2c(ncn2[C@H]2C=C[C@@H](CO)C2)c(=O)[nH]1 [CARBOVIR]", "µM", 10),
    ("COC(=O)[C@@H](C)NP(=O)(OC[C@@H]1C=C[C@H](n2cnc3c(NC4CC4)nc(N)nc32)C1)Oc1ccccc1 (stereo in doubt; 3a,b)", "µM", 0.55),
]

----------
In this section we review reported pEC50 values for a set of compounds.
# Tested on: Hepatitis B virus
# ASSAY_EXPLANATION: Effective concentration against HBV in Hep G2.2.15 cells
# Type: functional, organism-based, HepG2 2.2.15
# CONDITION_SET: hepg2 2.2.15
pEC50: −log10 of the molar value.
MEASUREMENT_NAME: pEC50

# COMPOUND, REPORTED
data = [
    ("COC(=O)[C@@H](C)NP(=O)(OC[C@@H]1C=C[C@H](n2cnc3c(NC4CC4)nc(N)nc32)C1)Oc1ccccc1 (stereo in doubt; 3b)", 5.82),
    ("COC(=O)[C@@H](C)NP(=O)(OC[C@@H]1C=C[C@H](n2cnc3c(NC4CC4)nc(N)nc32)C1)Oc1ccccc1 (stereo in doubt; 3a,b)", 6.26),
    ("CCOC(=O)[C@@H](C)NP(=O)(OC[C@@H]1C=C[C@H](n2cnc3c(NC4CC4)nc(N)nc32)C1)Oc1ccccc1 (stereo in doubt; 6b)", 6.57),
    ("CCOC(=O)[C@@H](C)NP(=O)(OC[C@@H]1C=C[C@H](n2cnc3c(NC4CC4)nc(N)nc32)C1)Oc1ccccc1 (stereo in doubt; 6a)", 6.70),
]

----------
# System: Human immunodeficiency virus 1
# ASSAY_EXPLANATION: Effective concentration against human immunodeficiency virus type 1 in MT-4 cells
# Format: functional, organism-based, MT4
# CONDITION_SET: Human immunodeficiency virus 1, MT4
pEC50: −log10 of the molar value.

# COMPOUND, pEC50
records = [
    ("C[C@@H](NP(=O)(O)OC[C@@H]1C=C[C@H](n2cnc3c(NC4CC4)nc(N)nc32)C1)C(=O)O", 5.18),
    ("COC(=O)CNP(=O)(OC[C@@H]1C=C[C@H](n2cnc3c(NC4CC4)nc(N)nc32)C1)Oc1ccccc1 (stereo partly drawn)", 5.14),
    ("COC(=O)[C@H](C)NP(=O)(OC[C@@H]1C=C[C@H](n2cnc3c(NC4CC4)nc(N)nc32)C1)Oc1ccccc1 (stereo partly drawn)", 5.47),
]
